Values from patent US10233191B2

pIC50 reference
biological target: NaV 1.7 (Homo sapiens); construct: expressed in transfected cells; host or cells: HEK cells; assay: E-VIPR optical membrane potential assay with electrical stimulation; format: cell-based; settings: active against one or more sodium channels; assay/subtype not specified in Table 4; read-out: IC50 Binned Activity Data
pIC50: −log10 of the molar value.

* [2H]C1([2H])OC2CN(C(=O)c3ccc(OCCOC(F)(F)F)c(OC)n3)CC[C@]2(c2cccc(F)c2)O1 (stereo partly drawn) [Compound 189] | ≥ 5.70
* Cc1cc(C(=O)N2CC[C@]3(c4ccccn4)OCOC3C2)ccc1OCC(C)(C)O (stereo partly drawn) [Compound 25] | 5.30 to 5.70
* COc1cc(C(=O)N2CC[C@]3(c4cccc(C(F)(F)F)n4)OCOC3C2)ccc1OCCOC(F)(F)F (stereo partly drawn) [Compound 169] | ≥ 5.70

Ask | Fill in: pIC50 of COc1cc(C(=O)N2CC[C@]3(c4ccccn4)OC(C)(C)OC3C2)ccc1OCCOC(F)(F)F (stereo partly drawn) [Compound 310] is ___
Reply | ≥ 5.70

Ask | Fill in: pIC50 of O=C(c1ccc(S(=O)(=O)C(F)F)cc1)N1CC[C@]2(c3cccc(F)c3)OCOC2C1 (stereo partly drawn) [Compound 261] is ___
Reply | < 5.30

Ask | Fill in: pIC50 of COc1cc(C(=O)N2CC[C@@]3(c4ccccn4)COC[C@H]3C2)ccc1OCCOC(F)(F)F [Compound 64] is ___
Reply | ≥ 5.70

Ask | Fill in: pIC50 of COc1cc(C(=O)N2CC[C@]3(c4ccc(F)cc4)OCOC3C2)ccc1OCC(C)(C)F (stereo partly drawn) [Compound 38] is ___
Reply | ≥ 5.70

Ask | Fill in: pIC50 of COc1cc(C(=O)N2CCC3(c4ccccc4)CC3C2)ccc1COCCC(F)(F)F (stereo not drawn) [Compound 136] is ___
Reply | ≥ 5.70

Ask | Fill in: pIC50 of Cc1cc(C(=O)N2CC[C@]3(c4cccc(OCC(C)C)n4)OCOC3C2)ccc1OCCOC(F)(F)F (stereo partly drawn) [Compound 80] is ___
Reply | ≥ 5.70

Ask | Fill in: pIC50 of COc1ccc(C(=O)N2CCC3(c4ccccc4)CC3C2)nc1C (stereo not drawn) [Compound 14] is ___
Reply | 5.30 to 5.70

Ask | Fill in: pIC50 of COc1nc(C(=O)N2CC[C@]3(c4cc(C(F)(F)F)ccn4)OCOC3C2)ccc1OCC1CC(F)(F)C1 (stereo partly drawn) [Compound 250] is ___
Reply | ≥ 5.70

Ask | Fill in: pIC50 of [2H]C1([2H])OC2CN(C(=O)c3ccc(OCCOC(F)(F)F)c(C)n3)CC[C@]2(c2cc(F)cc(F)c2)O1 (stereo partly drawn) [Compound 308] is ___
Reply | ≥ 5.70

Ask | Fill in: pIC50 of COc1nc(C(=O)N2CC[C@]3(c4cccc(F)c4)OCOC3C2)ccc1OCC1CCC(F)(F)C1 (stereo partly drawn) [Compound 235] is ___
Reply | ≥ 5.70

Ask | Fill in: pIC50 of Cc1cc(C(=O)N2CC[C@]3(c4ncccc4Cl)OCOC3C2)ccc1OCCOC(F)(F)F (stereo partly drawn) [Compound 182] is ___
Reply | ≥ 5.70

Ask | Fill in: pIC50 of COc1cc(C(=O)N2CC[C@]3(c4cccc(F)c4F)OCOC3C2)ccc1OC(C)C(F)(F)F (stereo partly drawn) [Compound 187] is ___
Reply | ≥ 5.70

Ask | Fill in: pIC50 of COc1nc(C(=O)N2CC[C@]3(c4cccc(F)c4)OCOC3C2)ccc1OCCOC(F)(F)F (stereo partly drawn) [Compound 188] is ___
Reply | ≥ 5.70

Ask | Fill in: pIC50 of COc1cc(C(=O)N2CCC3(c4ccccn4)C(C2)C3(F)F)ccc1OCCOC(F)(F)F (stereo not drawn) [Compound 260] is ___
Reply | ≥ 5.70

Ask | Fill in: pIC50 of Cc1cc(C(=O)N2CC[C@@]3(c4nccs4)OCOC3C2)ccc1OCC(F)(F)F (stereo partly drawn) [Compound 63] is ___
Reply | ≥ 5.70

---

IC50 reference
molecular target: UniProt:Q15858; test: E-VIPR optical membrane potential assay with electrical stimulation; conditions: active against one or more sodium channels; assay/subtype not specified in Table 4; read-out: IC50 Binned Activity Data

Some compounds with known IC50 results, for comparison:
• COc1cc(C(=O)N2CC[C@]3(c4cc(C(F)(F)F)ccn4)OCOC3C2)ccc1OCCC1CC1(F)F (stereo partly shown) = ≤ 2000 nM
• O=C(c1ccc(OCC2CC(F)(F)C2)c(Cl)c1)N1CC[C@@]2(c3ccccn3)COC2C1 (stereo partly shown) = ≤ 2000 nM
• COc1cccnc1[C@]12CCN(C(=O)c3ccc(OCCOC(F)(F)F)c(Cl)c3)CC1OCO2 (stereo partly shown) = ≤ 2000 nM

Let's switch to this compound now.
Ask | Fill in: IC50 of COc1cc(C(=O)N2CC[C@]3(c4nccs4)OCOC3C2)ccc1OCC(C)(C)F (stereo partly shown) is ___
Reply | 2000 to 5000 nM

---

IC50 reference
molecular target: NaV 1.7 (Homo sapiens); assay: E-VIPR optical membrane potential assay with electrical stimulation; conditions: active against one or more sodium channels; assay/subtype not specified in Table 4; read-out: IC50 Binned Activity Data

Ask | Fill in: IC50 of `COc1cc(C(=O)N2CC[C@]3(c4ccccn4)COC[C@@H]3C2)ccc1OCCOC(F)(F)F` is ___
Reply | > 5 µM

Ask | Fill in: IC50 of COc1cc(C(=O)N2CC[C@]3(c4ccccc4)OCOC3C2)ccc1OCC(C)(C)F (stereo partly shown) is ___
Reply | ≤ 2 µM

---

molecular target: NaV 1.7 (Homo sapiens, UniProt Q15858); assay: E-VIPR optical membrane potential assay with electrical stimulation; settings: active against one or more sodium channels; assay/subtype not specified in Table 4; read-out: IC50 Binned Activity Data
Sequence (Q15858 whole entry): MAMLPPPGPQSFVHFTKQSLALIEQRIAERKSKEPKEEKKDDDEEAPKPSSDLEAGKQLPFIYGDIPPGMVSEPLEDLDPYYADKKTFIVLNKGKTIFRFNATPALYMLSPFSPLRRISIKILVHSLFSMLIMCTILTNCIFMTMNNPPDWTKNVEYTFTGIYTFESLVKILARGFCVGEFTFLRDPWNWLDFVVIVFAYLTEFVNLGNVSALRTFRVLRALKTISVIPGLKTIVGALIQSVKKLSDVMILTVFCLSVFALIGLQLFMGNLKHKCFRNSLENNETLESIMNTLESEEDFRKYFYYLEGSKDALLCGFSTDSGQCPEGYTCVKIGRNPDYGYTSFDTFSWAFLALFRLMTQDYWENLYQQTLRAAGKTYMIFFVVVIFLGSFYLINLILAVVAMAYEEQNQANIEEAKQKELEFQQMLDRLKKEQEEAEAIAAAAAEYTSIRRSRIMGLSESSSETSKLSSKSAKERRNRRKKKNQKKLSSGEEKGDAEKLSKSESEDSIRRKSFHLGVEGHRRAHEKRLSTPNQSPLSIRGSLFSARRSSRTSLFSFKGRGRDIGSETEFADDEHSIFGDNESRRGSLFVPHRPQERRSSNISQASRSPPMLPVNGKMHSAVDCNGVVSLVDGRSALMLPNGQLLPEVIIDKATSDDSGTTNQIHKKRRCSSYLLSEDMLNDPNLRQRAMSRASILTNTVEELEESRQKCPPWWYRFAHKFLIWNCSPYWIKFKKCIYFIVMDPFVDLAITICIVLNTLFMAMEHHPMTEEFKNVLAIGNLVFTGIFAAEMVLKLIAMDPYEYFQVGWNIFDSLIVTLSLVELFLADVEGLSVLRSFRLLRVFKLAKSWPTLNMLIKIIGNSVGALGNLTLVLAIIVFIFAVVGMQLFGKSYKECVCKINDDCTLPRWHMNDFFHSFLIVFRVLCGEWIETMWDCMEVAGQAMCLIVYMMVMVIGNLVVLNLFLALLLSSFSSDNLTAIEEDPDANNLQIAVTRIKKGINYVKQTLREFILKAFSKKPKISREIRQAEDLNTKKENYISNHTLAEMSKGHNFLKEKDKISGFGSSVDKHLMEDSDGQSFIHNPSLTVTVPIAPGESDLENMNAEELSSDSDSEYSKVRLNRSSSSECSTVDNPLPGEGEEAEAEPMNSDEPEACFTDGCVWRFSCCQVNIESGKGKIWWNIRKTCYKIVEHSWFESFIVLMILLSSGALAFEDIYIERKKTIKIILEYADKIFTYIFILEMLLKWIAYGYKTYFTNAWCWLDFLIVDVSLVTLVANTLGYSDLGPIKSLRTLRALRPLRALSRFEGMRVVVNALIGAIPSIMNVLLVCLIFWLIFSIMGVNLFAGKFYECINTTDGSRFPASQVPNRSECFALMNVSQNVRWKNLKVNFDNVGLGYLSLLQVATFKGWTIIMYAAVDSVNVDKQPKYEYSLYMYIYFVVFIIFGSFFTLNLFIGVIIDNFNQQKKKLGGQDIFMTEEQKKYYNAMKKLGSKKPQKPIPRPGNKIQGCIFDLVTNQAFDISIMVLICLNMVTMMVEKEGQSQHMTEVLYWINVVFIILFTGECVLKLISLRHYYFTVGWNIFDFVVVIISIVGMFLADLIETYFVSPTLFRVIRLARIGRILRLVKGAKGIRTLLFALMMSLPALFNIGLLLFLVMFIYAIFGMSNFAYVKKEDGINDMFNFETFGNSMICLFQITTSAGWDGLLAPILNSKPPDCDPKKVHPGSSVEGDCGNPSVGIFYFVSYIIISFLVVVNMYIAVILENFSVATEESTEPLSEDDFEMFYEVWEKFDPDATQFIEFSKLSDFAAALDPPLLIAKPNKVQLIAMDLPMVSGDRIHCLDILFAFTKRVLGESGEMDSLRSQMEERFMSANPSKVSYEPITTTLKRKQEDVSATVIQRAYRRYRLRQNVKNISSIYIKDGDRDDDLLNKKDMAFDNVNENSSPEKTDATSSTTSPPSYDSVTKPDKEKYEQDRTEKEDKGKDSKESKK
pIC50: −log10 of the molar value.
assay-endpoint: pIC50

Some compounds with known pIC50 results, for comparison:
* COc1cc(C(=O)N2CCC3(c4ccccn4)CC3C2)ccc1OCCOC(F)(F)F (stereo not drawn) [Compound 285] | ≥ 5.70
* CC(COc1ccc(C(=O)N2CC[C@]3(c4ccccn4)OCOC3C2)cc1Cl)CC(F)(F)F (stereo partly drawn) [Compound 164] | ≥ 5.70
* COc1cc(C(=O)N2CC[C@]3(c4cccc(Cl)c4)OCOC3C2)ccc1OC(C)C(F)(F)F (stereo partly drawn) [Compound 170] | ≥ 5.70
* COc1cc(C(=O)N2CC[C@]3(c4cccc(F)c4)OCOC3C2)ccc1NCC1CC(F)(F)C1 (stereo partly drawn) [Compound 211] | ≥ 5.70
* [2H]C1([2H])OC2CN(C(=O)c3ccc(OCCOC(F)(F)F)c(OC)c3)CC[C@]2(c2ccccn2)O1 (stereo partly drawn) [Compound 305] | ≥ 5.70
* O=C(c1ccc(OCCOC(F)(F)F)c(Cl)c1)N1CC[C@@]2(c3cccc(F)c3)OCOC2C1 (stereo partly drawn) [Compound 216] | ≥ 5.70
* COc1cc(C(=O)N2CC[C@@]3(c4cccc(F)c4)OCOC3C2)ccc1OC(C)C(F)(F)F (stereo partly drawn) [Compound 212] | 5.30 to 5.70
* O=C(c1ccc(OCCOC(F)(F)F)c(Cl)c1)N1CC[C@]2(c3cccc(F)c3)OCOC2C1 (stereo partly drawn) [Compound 255] | ≥ 5.70

Ask | API: value(readout=pIC50, system=NaV 1.7 (Homo sapiens, UniProt Q15858)) for record COc1cc(C(=O)N2CC[C@]3(c4ccccn4)OCOC3C2)ccc1OCCOC(F)(F)F (stereo partly drawn) [Compound 92]
Reply | ≥ 5.70

Ask | API: value(readout=pIC50, system=NaV 1.7 (Homo sapiens, UniProt Q15858)) for record COc1cc(C(=O)N2CC[C@]3(c4cc(C(F)(F)F)ccn4)OCOC3C2)ccc1OCCOC(F)(F)F (stereo partly drawn) [Compound 179]
Reply | ≥ 5.70

Ask | API: value(readout=pIC50, system=NaV 1.7 (Homo sapiens, UniProt Q15858)) for record COc1cc(C(=O)N2CC[C@]3(c4cccc(F)c4F)OCOC3C2)ccc1O[C@@H](C)C(F)(F)F (stereo partly drawn) [Compound 258]
Reply | ≥ 5.70

Ask | API: value(readout=pIC50, system=NaV 1.7 (Homo sapiens, UniProt Q15858)) for record COc1cc(C(=O)N2CC[C@]3(c4ccccn4)OCOC3C2)ccc1OC(C)CC(F)(F)F (stereo partly drawn) [Compound 61]
Reply | ≥ 5.70

---

target: NaV 1.7 (Homo sapiens); experiment: E-VIPR optical membrane potential assay with electrical stimulation; details: active against one or more sodium channels; assay/subtype not specified in Table 4; read-out: IC50 Binned Activity Data
assay-endpoint: IC50

Some compounds with known IC50 results, for comparison:
• Cc1cc(C(=O)N2CC[C@]3(c4ncccn4)OCOC3C2)ccc1OCC(C)(C)F (stereo partly shown) = ≤ 2 µM
• O=C(c1ccc2c(c1)OCC(COC(F)(F)F)O2)N1CC[C@@]2(c3ccccc3)OCOC2C1 (stereo partly shown) = ≤ 2 µM
• COc1ccnc([C@]23CCN(C(=O)c4ccc(OCC(F)(F)C(F)F)c(OC)c4)CC2OCO3)c1 (stereo partly shown) = ≤ 2 µM
• O=C(c1ccc(OCC2CC(F)(F)C2)c(Cl)c1)N1CC[C@]2(c3ccccn3)OCOC2C1 (stereo partly shown) = ≤ 2 µM
• COc1cc(C(=O)N2CCC3(c4ccccc4)OCC3C2)ccc1OCCOC(F)(F)F (stereo not shown) = ≤ 2 µM

Ask | Fill in: IC50 of COc1cc(C(=O)N2CC[C@@]3(c4nccs4)OCOC3C2)ccc1OCCOC(F)(F)F (stereo partly shown) is ___
Reply | ≤ 2 µM

Ask | Fill in: IC50 of [2H]C1([2H])OC2CN(C(=O)c3ccc(OCCOC(F)(F)F)c(OC)c3)CC[C@]2(c2ccccc2)O1 (stereo partly shown) is ___
Reply | ≤ 2 µM
